# Experimental System: Neuropilin-1 (Rattus norvegicus)
# Assay Explanation: Inhibition of biotin-labelled VEGF165 binding to rat recombinant NRP-1/Fc chimeric protein at 3 uM incubated for overnight by competitive ELISA method relative to control
Positions of bridges follow the written chain, without caps; N, C: chain ends. Non-standard residues stand in square brackets, D forms with d. Residues, ends and D or L forms follow the SMILES beside them. Orn = NCCC[C@H](N)C(=O)O
Attribute Measured: inhibition (%)

N=C(N)NCCC[C@H](NC(=O)CC[C@@H]1NC(=O)[C@H]2CCCN2C(=O)[C@@H](N)CCCCNC(=O)CC[C@@H](C(=O)N[C@@H](CCCNC(=N)N)C(=O)O)NC(=O)[C@H]2CCCN2C(=O)[C@H](CCCCN)NC1=O)C(=O)O    72.2

(a) N=C(N)NCCC[C@H](NC(=O)[C@@H]1CC(=O)NCCCC[C@H](N)C(=O)N2CCC[C@H]2C(=O)N1)C(=O)O (H-KPDR-OH; lactam 1-3)
(b) N=C(N)NCCC[C@H](NC(=O)[C@@H]1CCC(=O)NCCC[C@H](N)C(=O)N2CCC[C@H]2C(=O)N1)C(=O)O (H-[Orn]PER-OH; lactam 1-3)
(c) N=C(N)NCCC[C@H](NC(=O)[C@@H]1CCCCNC(=O)CC[C@H](N)C(=O)N2CCC[C@H]2C(=O)N1)C(=O)O (H-EPKR-OH; lactam 1-3)
(d) N=C(N)NCCC[C@H](NC(=O)[C@@H]1CCC(=O)NCCCC[C@@H](N)C(=O)N2CCC[C@H]2C(=O)N1)C(=O)O (H-[dK]PER-OH; lactam 1-3)
**Query** Output the entries ranked by inhibition from maximum down to minimum. Thanks in advance for listing the labels in the requested order.
**Result** c, b, a, d

All figures here come from ChEMBL document CHEMBL3875187.
